From various publications: pIC50 for Serine/threonine-protein kinase pim-1 (Homo sapiens, UniProt P11309).
pIC50: −log10 of the molar value.
Quantity: pIC50

[
  {
    "Smiles record": "O=C(NCc1ccc(O)c(O)c1)Nc1ccc2ccc(C(=O)O)c(O)c2n1",
    "Result comparator": "=",
    "Recorded result": 6.30
  },
  {
    "Smiles record": "COC(C)(C)CC#Cc1c(Cl)c2c(Cl)cc(C(N)=O)nc2n1[C@H]1CCCNC1",
    "Result comparator": "=",
    "Recorded result": 8.64
  },
  {
    "Smiles record": "CN1CCOc2c1c(NCC13CCN(CC1)C3)nn1c(-c3cccc(OC(F)(F)F)c3)nnc21",
    "Result comparator": ">",
    "Recorded result": 7.00
  },
  {
    "Smiles record": "O=C(C[C@H]1CNC(=O)c2cc(-c3cccc(F)c3)cn21)N[C@H](CO)C1CCCCC1",
    "Result comparator": "=",
    "Recorded result": 7.80
  },
  {
    "Smiles record": "CN(C)CCNc1cncc(-c2ccc3[nH]cc(-c4ccc(S(C)(=O)=O)cc4)c3c2)n1",
    "Result comparator": "=",
    "Recorded result": 7.68
  },
  {
    "Smiles record": "CN(C)CCNc1cncc(-c2ccc3[nH]cc(-c4cccc(F)c4)c3c2)n1",
    "Result comparator": "=",
    "Recorded result": 7.52
  },
  {
    "Smiles record": "O=C(O)c1cc2cc(-c3cnccn3)ccc2o1",
    "Result comparator": "=",
    "Recorded result": 5.13
  },
  {
    "Smiles record": "Cn1cc(-c2ccc3oc(C(=O)O)cc3c2)cn1",
    "Result comparator": "=",
    "Recorded result": 5.27
  },
  {
    "Smiles record": "CN(C)CCNc1ccn2ncc(-c3ccc(Cl)cc3)c2n1",
    "Result comparator": "=",
    "Recorded result": 6.08
  },
  {
    "Smiles record": "O=C(O)c1cc2cc(Br)cc(OCc3ccncc3)c2o1",
    "Result comparator": "=",
    "Recorded result": 5.31
  }
]

====

pIC50: −log10 of the molar value.
Kindly find below pIC50 information for Serine/threonine-protein kinase pim-1 (Homo sapiens, UniProt P11309) taken from the literature.

[
  {
    "Molecule": "COc1cccc(-c2c[nH]c3ccc(-c4cncc(NCCN(C)C)n4)cc23)c1",
    "System tested": "Serine/threonine-protein kinase pim-1 (Homo sapiens, UniProt P11309)",
    "Result comparator": "=",
    "pIC50": 8.15
  },
  {
    "Molecule": "Cc1nc2cccc(-c3cc4c([nH]3)C3(CC3)NC4=O)c2nc1NC(C)(C)C",
    "System tested": "Serine/threonine-protein kinase pim-1 (Homo sapiens, UniProt P11309)",
    "Result comparator": "=",
    "pIC50": 9.40
  },
  {
    "Molecule": "C[C@H]1NC(=O)c2cc(-c3nccc4c(=O)n(C)c(NC(C)(C)C)nc34)[nH]c21",
    "System tested": "Serine/threonine-protein kinase pim-1 (Homo sapiens, UniProt P11309)",
    "Result comparator": "=",
    "pIC50": 8.35
  },
  {
    "Molecule": "CC1(CC#Cc2c(Cl)c3c(Cl)cc(C(N)=O)nc3n2[C@H]2CCCNC2)COC1",
    "System tested": "Serine/threonine-protein kinase pim-1 (Homo sapiens, UniProt P11309)",
    "Result comparator": "=",
    "pIC50": 8.62
  },
  {
    "Molecule": "O=C(Nc1cc(-c2cccc3[nH]ccc23)cc2[nH]ncc12)C1CC1",
    "System tested": "Serine/threonine-protein kinase pim-1 (Homo sapiens, UniProt P11309)",
    "Result comparator": "=",
    "pIC50": 4.80
  },
  {
    "Molecule": "COc1cc2c(Oc3ccc(-c4cnc(Cc5ccccc5)n(C)c4=O)cc3F)ccnc2cc1OCCCN1CCOCC1",
    "System tested": "Serine/threonine-protein kinase pim-1 (Homo sapiens, UniProt P11309)",
    "Result comparator": "<",
    "pIC50": 4.52
  },
  {
    "Molecule": "O=C(O)C1CCN(Cc2nc3c(oc4ccc(Br)cc43)c(=O)[nH]2)C1 (racemic)",
    "System tested": "Serine/threonine-protein kinase pim-1 (Homo sapiens, UniProt P11309)",
    "Result comparator": "=",
    "pIC50": 6.85
  },
  {
    "Molecule": "COc1cc(/C=C/c2ccc3ccc(C(=O)O)c(O)c3n2)cc(OC)c1O",
    "System tested": "Serine/threonine-protein kinase pim-1 (Homo sapiens, UniProt P11309)",
    "Result comparator": "=",
    "pIC50": 5.60
  },
  {
    "Molecule": "c1cc2c(cn1)Oc1ccc3cc1N2CCOCCNCCCCO3",
    "System tested": "Serine/threonine-protein kinase pim-1 (Homo sapiens, UniProt P11309)",
    "Result comparator": "=",
    "pIC50": 6.33
  },
  {
    "Molecule": "COc1cc(Br)cc2[nH]c(I)c(-c3cnc(-c4ccc[nH]4)o3)c12",
    "System tested": "Serine/threonine-protein kinase pim-1 (Homo sapiens, UniProt P11309)",
    "Result comparator": "=",
    "pIC50": 4.74
  },
  {
    "Molecule": "Cc1nnc(-c2cccc(-c3cnn4ccc(NCCN)nc34)c2)o1",
    "System tested": "Serine/threonine-protein kinase pim-1 (Homo sapiens, UniProt P11309)",
    "Result comparator": "=",
    "pIC50": 8.89
  },
  {
    "Molecule": "COc1ncc2cc1NS(=O)(=O)c1cccc(c1)C(=O)NCc1cc(ccn1)-c1ncnc3c1SC2=C3",
    "System tested": "Serine/threonine-protein kinase pim-1 (Homo sapiens, UniProt P11309)",
    "Result comparator": "=",
    "pIC50": 6.19
  },
  {
    "Molecule": "COc1ncc2cc1NS(=O)(=O)c1cccc(c1)C(=O)NC[C@H]1CCN(C1)c1ncnc3c1SC2=C3C",
    "System tested": "Serine/threonine-protein kinase pim-1 (Homo sapiens, UniProt P11309)",
    "Result comparator": "=",
    "pIC50": 7.36
  },
  {
    "Molecule": "Nc1nccc(-c2c[nH]c3ccc(Br)cc23)n1",
    "System tested": "Serine/threonine-protein kinase pim-1 (Homo sapiens, UniProt P11309)",
    "Result comparator": "=",
    "pIC50": 5.98
  },
  {
    "Molecule": "CN(C)CCNc1cncc(-c2ccc3[nH]cc(-c4ccccc4F)c3c2)n1",
    "System tested": "Serine/threonine-protein kinase pim-1 (Homo sapiens, UniProt P11309)",
    "Result comparator": "=",
    "pIC50": 8.15
  },
  {
    "Molecule": "O=C1NC(=S)S/C1=C\\c1ccc2ncccc2c1",
    "System tested": "Serine/threonine-protein kinase pim-1 (Homo sapiens, UniProt P11309)",
    "Result comparator": "=",
    "pIC50": 6.99
  },
  {
    "Molecule": "Cc1nc2cccc3c2nc1N[C@@H](C)/C=C/C[C@H]1CNC(=O)c2cc-3[nH]c21",
    "System tested": "Serine/threonine-protein kinase pim-1 (Homo sapiens, UniProt P11309)",
    "Result comparator": "=",
    "pIC50": 9.22
  },
  {
    "Molecule": "COc1cc(Br)cc2[nH]cc(-c3cnc(-c4cc(Br)c[nH]4)o3)c12",
    "System tested": "Serine/threonine-protein kinase pim-1 (Homo sapiens, UniProt P11309)",
    "Result comparator": "=",
    "pIC50": 4.37
  },
  {
    "Molecule": "COCCC#Cc1c(Cl)c2c(Cl)cc(C(N)=O)nc2n1[C@H]1CCCNC1",
    "System tested": "Serine/threonine-protein kinase pim-1 (Homo sapiens, UniProt P11309)",
    "Result comparator": "=",
    "pIC50": 9.10
  },
  {
    "Molecule": "CN1CCN(C[C@@H](NC(=O)C[C@H]2CNC(=O)c3cc(-c4cccc(Cl)c4)cn32)C(C)(C)C)CC1",
    "System tested": "Serine/threonine-protein kinase pim-1 (Homo sapiens, UniProt P11309)",
    "Result comparator": "=",
    "pIC50": 8.30
  }
]

====

# IC50 against Serine/threonine-protein kinase pim-1 (Homo sapiens, UniProt P11309), merged from multiple literature sources

[
  {
    "Compound": "COc1ccc2c(c1C(C)N1CCNCC1)O/C(=C\\c1n[nH]c3ncccc13)C2=O (stereo not given)",
    "IC50": "1.9 nM"
  },
  {
    "Compound": "Cc1nc2cccc(-c3cc4n(c3)CCNC4=O)c2nc1NC(C)(C)C",
    "IC50": "6.6 nM"
  },
  {
    "Compound": "C=CC(=O)NCc1coc(-c2c(N)ncnc2Nc2ccc(OCc3ccccn3)c(Cl)c2)n1",
    "IC50": "> 3000 nM"
  },
  {
    "Compound": "CC(C)(CC#Cc1c(Cl)c2c(Cl)cc(C(N)=O)nc2n1[C@H]1CCCNC1)C(N)=O",
    "IC50": "4.7 nM"
  },
  {
    "Compound": "CN(C)CCN(C)c1cncc(-c2ccc3[nH]cc(-c4ccnc(N)n4)c3c2)n1",
    "IC50": "8 nM"
  }
]
